tgt: UniProtKB Q9NR97
Sequence (Q9NR97 27-1041): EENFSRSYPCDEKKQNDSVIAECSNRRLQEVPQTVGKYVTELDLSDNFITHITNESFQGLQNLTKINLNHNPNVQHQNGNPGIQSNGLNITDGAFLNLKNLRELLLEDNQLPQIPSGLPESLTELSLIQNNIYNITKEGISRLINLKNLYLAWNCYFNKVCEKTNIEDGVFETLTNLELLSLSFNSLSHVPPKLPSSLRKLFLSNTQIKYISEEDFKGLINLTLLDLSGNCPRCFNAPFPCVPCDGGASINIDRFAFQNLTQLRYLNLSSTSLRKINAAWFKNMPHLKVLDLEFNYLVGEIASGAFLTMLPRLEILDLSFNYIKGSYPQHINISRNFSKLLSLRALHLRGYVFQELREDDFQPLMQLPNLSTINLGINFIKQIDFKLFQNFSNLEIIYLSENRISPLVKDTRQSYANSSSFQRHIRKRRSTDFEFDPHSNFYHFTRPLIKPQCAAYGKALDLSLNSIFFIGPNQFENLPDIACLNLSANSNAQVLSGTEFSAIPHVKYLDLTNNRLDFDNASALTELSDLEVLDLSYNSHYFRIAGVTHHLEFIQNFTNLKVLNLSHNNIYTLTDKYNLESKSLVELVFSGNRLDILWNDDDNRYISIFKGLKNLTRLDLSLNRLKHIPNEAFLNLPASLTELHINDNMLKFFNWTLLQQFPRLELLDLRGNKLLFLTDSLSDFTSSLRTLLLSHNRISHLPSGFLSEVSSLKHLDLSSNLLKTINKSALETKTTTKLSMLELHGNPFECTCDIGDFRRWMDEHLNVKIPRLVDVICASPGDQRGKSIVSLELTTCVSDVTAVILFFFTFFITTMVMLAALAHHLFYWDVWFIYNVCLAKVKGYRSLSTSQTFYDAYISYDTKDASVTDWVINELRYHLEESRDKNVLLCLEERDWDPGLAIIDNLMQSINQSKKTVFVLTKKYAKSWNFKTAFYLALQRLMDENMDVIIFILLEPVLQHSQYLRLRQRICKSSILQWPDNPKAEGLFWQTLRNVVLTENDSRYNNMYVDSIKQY
protocol.text: TLR8 inhibition reporter assay (HEK-Blue cells, SEAP reporter, R848 stimulation)
details: HEK-Blue cells overexpressing human TLR8, SEAP reporter, R848 15.9 μM
Let's look at some molecules and their measured IC50.
Report the value in nM with no unit label.

# count of solved cases: 6
| molecule | measure.name | reported.measurement |
| --- | --- | --- |
| CNC(=O)CN1CCCC(c2ccc3[nH]c(-c4cc(OC)c5ncnn5c4)c(C(C)C)c3c2)C1 (stereo not drawn) [Example 228] | IC50 | 10 |
| Cc1cc(-c2[nH]c3ccc(C4CCC(C(=O)N5CCN(C)CC5)CC4)cc3c2C(C)C)cn2ncnc12 (single isomer, unassigned) [Example 156] | IC50 | 6.7 |
| CCc1c(-c2ccnc(C)c2)[nH]c2ccc(CNC(=O)N3CCN(C)CC3)cc12 [Example 448] | IC50 | 134 |
| Cc1c(-c2[nH]c3ccc(C4CNCCO4)cc3c2C(C)C)cn2ncnc2c1C (stereo not drawn) [Example 288] | IC50 | 0.52 |
| CNC1CCC(c2ccc3[nH]c(-c4cc(C)nc(C)c4)c(C(C)C)c3c2)CC1 (single isomer, unassigned) [Example 51] | IC50 | 11 |
| Cc1cc(-c2[nH]c3ccc(C4CCC(N(C)C(=O)CN(C)C)CC4)cc3c2C(C)C)cn2ncnc12 (stereo not drawn) [Example 148] | IC50 | 7.7 |

## Task Indicate its recorded IC50; the molecule in question is COc1cc(-c2[nH]c3ccc(C4CCC(N5CCOCC5)CC4)cc3c2C(C)C)cn2ncnc12 (stereo not drawn) [Example 76]
## Result 5.7

## Task Indicate its recorded IC50; the molecule in question is COc1cc(-c2[nH]c3ccc(C4CCC(N(C)OC)CC4)cc3c2C(C)C)cn2ncnc12 (stereo not drawn) [Example 100]
## Result 431
